molecular target: UniProt P43405; settings: read-out: rhSYK Activity; class symbol; where two forms are listed, one symbol per form
reported-property: IC50

Worked cases, answers included:
INSERT INTO assay_data (compound, val) VALUES
  ('N#CCCC1CCCCC1(O)c1ncc(-c2cccc(Nc3nccc(C(F)(F)F)n3)c2)s1 (stereo not drawn)', '100 to 1000 nM'),
  ('Cc1cc(Nc2nccc(C(F)(F)F)n2)cc(-c2cnc(C(C)(O)c3cncc(Br)c3)s2)c1 (stereo not drawn)', '< 100 nM'),
  ('Cc1cc(Nc2nccc(C(F)(F)F)n2)cc(-c2cnc(C(O)(c3ccccn3)C(C)C)s2)c1 (stereo not drawn)', '100 to 1000 nM'),
  ('Cc1cc(Nc2nccc(C(F)(F)F)n2)cc(-c2cnc(C(C)(O)CO)s2)c1 (stereo not drawn) [Ex 5-5]', '< 100 nM'),
  ('Cc1cc(Nc2nccc(C(F)(F)F)n2)cc(-c2cnc([C@]3(O)CC[C@H](CC(=O)O)CC3)s2)c1', '< 100 nM'),
  ('Cc1cc(Nc2nccc(C(F)(F)F)n2)cc(-c2cnc(C(C)(O)CCCC(=O)O)s2)c1 (stereo not drawn)', '< 100 nM'),
  ('C=CCCC(C)(O)c1ncc(-c2cc(C)cc(Nc3nccc(C(F)(F)F)n3)c2)s1 (stereo not drawn)', '< 100 nM'),
  ('Cc1cc(Nc2ncc(F)c(C)n2)cc(-c2cnc(C(C)(O)CO)s2)c1 (stereo not drawn) [Ex 5-9]', '< 100 nM');

# compound Cc1cc(Nc2nccc(C(F)(F)F)n2)cc(-c2cnc(C3(O)CCC(NC(=O)C4CCC(=O)O4)CC3)s2)c1 (stereo not drawn) [Example 4C-30] ; its IC50 = < 100 nM

# credit: patent US8551984B2
